Entry source: patent US8354419B2

Test system: HCV (Ib) RNA replication
Assay: Cell-based luciferase reporter HCV (1b) RNA replication assay (replicon cell lines Huh-7 5.2 and ET)
Set-up: species or system Hepatitis C virus
Conditions: Hepatitis C virus, Huh-7, 96 h, HCV 1b genotype replicon, luciferase readout, 4 days incubation; read-out: EC50_1b
measure: EC50

Tell me the measured EC50 of COC(=O)N[C@@H](C)C(=O)N1CCC[C@H]1c1nc2cc(C#Cc3ccc4[nH]c([C@@H]5CCCN5)nc4c3)ccc2[nH]1 [Compound 57] , please. 5 to 5000 nM

Others:
Which EC50 value is on record for CC[C@@H](C(=O)N1CCC[C@H]1c1nc2cc(-c3ccc(-c4ccc5nc([C@@H]6CCCN6C(=O)[C@H](CC)N(C)C(=O)OC)[nH]c5c4)c4c3OCO4)ccc2[nH]1)N(C)C(=O)OC [Compound 215] ? ≤ 5 nM

Record request: EC50 value, item O=C([C@H]1CCCO1)N1CCC[C@H]1c1nc2cc(C#Cc3ccc4nc([C@@H]5CCCN5C(=O)[C@H]5CCCO5)[nH]c4c3)ccc2[nH]1 [Compound 32] 5 to 5000 nM

Which value of EC50 has been reported for CC(C)C(NC(=O)C1CCCCC1)C(=O)N1CCC[C@H]1c1nc2cc(C#Cc3ccc4[nH]c([C@@H]5CCCN5C(=O)C(NC(=O)C5CCCCC5)C(C)C)nc4c3)ccc2[nH]1 (stereo partly shown) [Compound 85] in the records? 5 to 5000 nM

====

Tested on: HCV (Ib) RNA replication
Assay: Cell-based luciferase reporter HCV (1b) RNA replication assay (replicon cell lines Huh-7 5.2 and ET)
Set-up: species or system Hepatitis C virus
Conditions: Hepatitis C virus, Huh-7, 96 h, HCV 1b genotype replicon, luciferase readout, 4 days incubation; read-out: EC50_1b
pEC50: −log10 of the molar value.
measure: pEC50

Answered examples (4):
Enter reported pEC50 observed with HCV (Ib) RNA replication for CC(C)(C)OC(=O)NC(C)(C)C(=O)N1CCC[C@H]1c1nc2cc(C#Cc3ccc4[nH]c([C@@H]5CCCN5C(=O)C(C)(C)NC(=O)OC(C)(C)C)nc4c3)ccc2[nH]1 [Compound 128] 5.30 to 8.30

Field: pEC50 (HCV (Ib) RNA replication). Entry: COC(=O)N[C@@H](C)C(=O)N1CCC[C@H]1c1nc2cc(C#Cc3ccc4[nH]c([C@@H]5CCCN5C(=O)[C@H](C)NC(=O)OC)nc4c3)ccc2[nH]1 [Compound 50] ≥ 8.30

Request body: readout pEC50, system HCV (Ib) RNA replication, query CC(C)(C)OC(=O)NC1(C(=O)N2CCC[C@H]2c2nc3cc(C#Cc4ccc5[nH]c([C@@H]6CCCN6C(=O)C6(NC(=O)OC(C)(C)C)CCC6)nc5c4)ccc3[nH]2)CCC1 [Compound 130] . Return the value. 5.30 to 8.30

Observed pEC50 on HCV (Ib) RNA replication for COC(=O)N[C@H](C(=O)N1CCC[C@H]1c1nc2cc(-c3ccc(-c4ccc5nc([C@@H]6CCCN6C(=O)[C@@H](NC(=O)OC)C(C)C)[nH]c5c4)cc3C(=O)O)ccc2[nH]1)C(C)C [Compound 198] , please. ≥ 8.30

***
Give HCV (Ib) RNA replication pEC50 for COC(=O)NC(C(=O)N1CCCC1c1nc2cc(-c3ccc(-c4ccc5[nH]c([C@@H]6CCCN6C(=O)C(NC(=O)OC)C(C)(C)F)nc5c4)cc3)ccc2[nH]1)C(C)(C)F (some centres unmarked) [Compound 179] ≥ 8.30
